target: Voltage-dependent L-type calcium channel subunit alpha-1D (Rattus norvegicus) (UniProt P27732); assay: Antagonist activity at rat Cav1.3 expressed in HEK293 cells assessed as inhibition of voltage pulse-induced calcium current at 100 nM by whole-cell patch-clamp recording
Sequence (P27732 whole entry): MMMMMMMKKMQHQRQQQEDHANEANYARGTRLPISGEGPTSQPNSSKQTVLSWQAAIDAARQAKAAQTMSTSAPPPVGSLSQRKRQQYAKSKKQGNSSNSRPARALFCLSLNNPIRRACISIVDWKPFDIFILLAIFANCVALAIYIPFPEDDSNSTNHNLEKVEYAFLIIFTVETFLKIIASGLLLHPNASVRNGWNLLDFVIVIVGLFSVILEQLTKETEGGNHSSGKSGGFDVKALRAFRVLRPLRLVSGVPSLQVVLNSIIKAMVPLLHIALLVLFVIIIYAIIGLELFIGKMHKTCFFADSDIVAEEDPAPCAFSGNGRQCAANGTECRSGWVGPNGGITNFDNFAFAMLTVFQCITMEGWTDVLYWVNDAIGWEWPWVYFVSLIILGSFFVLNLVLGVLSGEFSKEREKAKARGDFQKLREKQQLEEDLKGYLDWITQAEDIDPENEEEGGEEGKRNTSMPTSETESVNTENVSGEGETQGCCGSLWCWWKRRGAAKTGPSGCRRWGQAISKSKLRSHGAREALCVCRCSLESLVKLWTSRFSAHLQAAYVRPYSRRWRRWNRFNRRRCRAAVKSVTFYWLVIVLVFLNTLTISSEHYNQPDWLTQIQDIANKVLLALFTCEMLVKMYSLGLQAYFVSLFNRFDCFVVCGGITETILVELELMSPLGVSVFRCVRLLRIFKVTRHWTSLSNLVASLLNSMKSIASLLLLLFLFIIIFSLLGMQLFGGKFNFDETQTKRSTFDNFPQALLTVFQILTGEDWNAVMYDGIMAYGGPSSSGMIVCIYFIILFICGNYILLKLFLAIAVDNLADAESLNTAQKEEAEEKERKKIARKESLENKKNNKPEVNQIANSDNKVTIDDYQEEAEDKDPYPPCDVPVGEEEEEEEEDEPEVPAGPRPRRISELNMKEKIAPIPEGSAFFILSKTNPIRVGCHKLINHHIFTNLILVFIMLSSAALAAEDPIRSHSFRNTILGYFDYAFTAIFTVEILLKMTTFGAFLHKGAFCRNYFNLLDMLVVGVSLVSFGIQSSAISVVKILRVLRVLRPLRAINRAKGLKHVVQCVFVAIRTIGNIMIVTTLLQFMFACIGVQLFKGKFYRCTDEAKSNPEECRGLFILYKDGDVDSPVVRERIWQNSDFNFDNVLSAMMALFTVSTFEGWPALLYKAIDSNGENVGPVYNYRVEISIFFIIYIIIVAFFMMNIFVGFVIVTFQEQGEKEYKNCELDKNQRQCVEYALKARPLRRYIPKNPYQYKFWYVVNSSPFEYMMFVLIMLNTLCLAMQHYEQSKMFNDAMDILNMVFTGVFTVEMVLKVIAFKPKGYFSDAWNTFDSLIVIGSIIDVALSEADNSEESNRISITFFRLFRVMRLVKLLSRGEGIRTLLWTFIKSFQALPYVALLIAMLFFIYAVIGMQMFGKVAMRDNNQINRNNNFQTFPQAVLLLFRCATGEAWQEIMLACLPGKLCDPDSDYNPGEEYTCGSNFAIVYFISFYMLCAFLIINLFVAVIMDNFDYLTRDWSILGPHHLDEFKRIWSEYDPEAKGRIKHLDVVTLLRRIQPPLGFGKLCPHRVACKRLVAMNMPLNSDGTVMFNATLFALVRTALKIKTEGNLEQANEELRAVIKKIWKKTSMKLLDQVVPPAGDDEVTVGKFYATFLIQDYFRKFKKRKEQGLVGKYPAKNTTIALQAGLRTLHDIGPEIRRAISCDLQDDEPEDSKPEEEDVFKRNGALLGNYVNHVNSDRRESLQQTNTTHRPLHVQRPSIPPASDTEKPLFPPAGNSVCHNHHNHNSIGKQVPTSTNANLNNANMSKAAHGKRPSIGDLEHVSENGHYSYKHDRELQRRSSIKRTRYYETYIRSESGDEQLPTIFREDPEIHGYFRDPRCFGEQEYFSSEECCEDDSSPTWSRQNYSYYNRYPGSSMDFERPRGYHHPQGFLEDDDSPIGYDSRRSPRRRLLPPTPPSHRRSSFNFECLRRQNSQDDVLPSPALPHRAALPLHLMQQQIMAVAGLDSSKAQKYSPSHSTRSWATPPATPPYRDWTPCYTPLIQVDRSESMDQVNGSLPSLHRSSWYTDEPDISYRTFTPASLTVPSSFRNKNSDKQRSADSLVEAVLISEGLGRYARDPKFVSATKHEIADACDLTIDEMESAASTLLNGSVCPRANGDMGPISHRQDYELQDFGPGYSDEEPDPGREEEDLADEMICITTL
measured_metric: inhibition
Please format your answer as a value with the unit trailing.

The value of inhibition measured for the compound `CCOC(=O)C1=C(C)NC(C)=C(C(=O)OCC)C1c1cccc(F)c1` turned out to be 48%

###

Measured log10 of IC50, listed per entry for reference.
target: Voltage-dependent L-type calcium channel subunit alpha-1C (Oryctolagus cuniculus, UniProt P15381); test: Antagonist activity at rabbit Cav1.2 expressed in HEK293 cells assessed as inhibition of voltage pulse-induced calcium current by FLIPR calcium 4 assay
Sequence (P15381 whole entry): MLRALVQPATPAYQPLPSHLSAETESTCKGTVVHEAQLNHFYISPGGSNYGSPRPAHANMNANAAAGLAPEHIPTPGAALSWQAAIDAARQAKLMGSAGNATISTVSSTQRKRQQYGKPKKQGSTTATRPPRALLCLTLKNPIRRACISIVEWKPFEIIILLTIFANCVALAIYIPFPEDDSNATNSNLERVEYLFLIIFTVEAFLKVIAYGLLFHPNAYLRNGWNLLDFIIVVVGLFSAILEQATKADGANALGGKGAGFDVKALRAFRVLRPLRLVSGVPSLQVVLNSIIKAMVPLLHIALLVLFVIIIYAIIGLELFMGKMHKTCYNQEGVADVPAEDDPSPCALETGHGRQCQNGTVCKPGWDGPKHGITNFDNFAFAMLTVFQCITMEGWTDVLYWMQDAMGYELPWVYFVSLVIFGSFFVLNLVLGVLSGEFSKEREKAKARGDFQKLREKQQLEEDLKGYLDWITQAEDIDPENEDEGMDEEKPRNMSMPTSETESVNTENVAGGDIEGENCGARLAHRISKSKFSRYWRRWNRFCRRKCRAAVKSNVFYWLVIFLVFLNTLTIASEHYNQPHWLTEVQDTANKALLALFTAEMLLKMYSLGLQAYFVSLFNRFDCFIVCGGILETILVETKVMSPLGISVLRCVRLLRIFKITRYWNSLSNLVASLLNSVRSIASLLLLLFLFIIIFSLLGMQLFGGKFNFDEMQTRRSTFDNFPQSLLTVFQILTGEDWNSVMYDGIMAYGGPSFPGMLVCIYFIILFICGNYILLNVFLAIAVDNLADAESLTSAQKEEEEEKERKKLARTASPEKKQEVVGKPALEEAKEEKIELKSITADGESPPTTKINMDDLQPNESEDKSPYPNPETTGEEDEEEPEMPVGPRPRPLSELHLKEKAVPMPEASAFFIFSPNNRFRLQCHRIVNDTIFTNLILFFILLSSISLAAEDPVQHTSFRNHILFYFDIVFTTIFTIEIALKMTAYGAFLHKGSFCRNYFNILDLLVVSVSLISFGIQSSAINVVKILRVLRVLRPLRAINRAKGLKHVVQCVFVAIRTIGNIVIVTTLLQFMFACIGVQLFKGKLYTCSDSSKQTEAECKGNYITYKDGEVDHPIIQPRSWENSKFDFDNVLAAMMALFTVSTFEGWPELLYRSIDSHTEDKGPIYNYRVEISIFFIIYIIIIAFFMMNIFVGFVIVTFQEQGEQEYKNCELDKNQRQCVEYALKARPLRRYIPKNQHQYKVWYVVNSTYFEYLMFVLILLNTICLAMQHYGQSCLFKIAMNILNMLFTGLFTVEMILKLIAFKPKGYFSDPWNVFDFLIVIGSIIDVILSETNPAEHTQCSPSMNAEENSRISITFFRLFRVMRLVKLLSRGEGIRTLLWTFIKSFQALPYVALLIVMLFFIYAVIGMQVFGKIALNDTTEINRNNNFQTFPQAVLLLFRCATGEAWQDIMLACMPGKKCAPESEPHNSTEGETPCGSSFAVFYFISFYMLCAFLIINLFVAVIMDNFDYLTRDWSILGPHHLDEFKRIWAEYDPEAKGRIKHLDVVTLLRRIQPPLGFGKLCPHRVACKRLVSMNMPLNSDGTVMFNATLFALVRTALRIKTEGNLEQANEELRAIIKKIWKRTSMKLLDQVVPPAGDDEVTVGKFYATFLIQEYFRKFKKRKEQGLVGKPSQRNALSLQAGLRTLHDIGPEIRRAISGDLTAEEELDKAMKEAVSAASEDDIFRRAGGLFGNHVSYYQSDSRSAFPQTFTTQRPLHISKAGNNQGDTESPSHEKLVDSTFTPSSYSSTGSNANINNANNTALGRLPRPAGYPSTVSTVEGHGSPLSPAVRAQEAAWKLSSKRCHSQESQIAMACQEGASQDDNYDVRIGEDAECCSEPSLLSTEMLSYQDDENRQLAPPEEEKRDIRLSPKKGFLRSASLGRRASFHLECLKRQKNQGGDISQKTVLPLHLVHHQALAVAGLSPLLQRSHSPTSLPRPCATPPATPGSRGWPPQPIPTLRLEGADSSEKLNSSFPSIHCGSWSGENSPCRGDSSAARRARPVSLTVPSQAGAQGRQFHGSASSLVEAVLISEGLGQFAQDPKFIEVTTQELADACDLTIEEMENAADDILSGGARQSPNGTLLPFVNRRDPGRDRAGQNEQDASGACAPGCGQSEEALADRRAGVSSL
Heads up: the numbers are on a log10 scale; they represent IC50 in nM.

In the examples that follow, each entry is paired with its recorded log10 of IC50.
Notebook: `COC(=O)C1=C(C)NC(C)=C(C(=O)OCCC#N)[C@@H]1c1cccc([N+](=O)[O-])c1` , log10 of IC50 read as 2.42

Per the records, this compound ( COC(=O)C1=C(C)NC(C)=C(C(=O)OCCC(C)c2ccccc2)C1c1cccc([N+](=O)[O-])c1 (stereo not drawn) ) has log10 of IC50 equal to 0.78

The compound listed as C=CCOC(=O)C1=C(C)NC(C)=C(C(=O)OC)C1c1cccc([N+](=O)[O-])c1 (stereo not drawn) shows log10 of IC50 equal to 1.18

Others:
The compound `COC(=O)C1=C(C)NC(C)=C(C(=O)OCCC#N)[C@H]1c1cccc([N+](=O)[O-])c1` showed log10 of IC50 equal to 2.16

Memo: CCOC(=O)C1=C(C)NC(C)=C(C(=O)OCCOC)C1c1cccc([N+](=O)[O-])c1 (stereo not drawn) , reported log10 of IC50: 1.20

Summary for this compound, COC(=O)C1=C(C)NC(C)=C(C(=O)OCCCl)C1c1cccc([N+](=O)[O-])c1 (stereo not drawn) : log10 of IC50 is 1.41

GET /value?item= `CCOC(=O)C1=C(C)NC(C)=C(C(=O)OCC)C1c1cccc(F)c1F` &field=log10 of IC50 returns 1.18

Lab book: log10 of IC50 of `CCOC(=O)C1=C(C)NC(C)=C(C(=O)OCC)C1c1ccc(F)cc1F` noted as 1.30

Entry under test: COC(=O)C1=C(C)NC(C)=C(C(=O)OCCC#N)C1c1cccc([N+](=O)[O-])c1 (stereo not drawn) . Its log10 of IC50 was 1.41

Sure, the documented log10 of IC50 for COC(=O)C1=C(C)NC(C)=C(C(=O)OCCNC(=O)C(F)(F)F)C1c1cccc([N+](=O)[O-])c1 (stereo not drawn) is 2.61

Lab note: measured log10 of IC50 of COC(=O)C1=C(C)NC(C)=C(C(=O)OCc2cccs2)C1c1cccc([N+](=O)[O-])c1 (stereo not drawn) was 1.49

// log10 of IC50 lookup, compound = `CC1=C(C#N)C(c2cccc(F)c2F)C(C#N)=C(C)N1` , result: 3.21

Record CCOC(=O)C1=C(C)NC(CO)=C(C(=O)OCC)C1c1cccc([N+](=O)[O-])c1 (stereo not drawn) , field log10 of IC50: 1.69

What the record says about CCCC1=C(C(=O)OCC)C(c2cccc([N+](=O)[O-])c2)C(C(=O)OCC)=C(C)N1 (stereo not drawn) : log10 of IC50 is 1.26

The compound listed as C=C(C)CCOC(=O)C1=C(C)NC(C)=C(C(=O)OC)C1c1cccc([N+](=O)[O-])c1 (stereo not drawn) has a reported log10 of IC50 of 1.36

// CCOC(=O)C1=C(C)NC(C=CC(=O)OC)=C(C(=O)OCC)C1c1cccc([N+](=O)[O-])c1 (mixture of isomers) : log10 of IC50 value = 2.50

`CCOC(=O)C1=C(C)NC(C)=C(C(=O)OCCC#N)[C@H]1c1cccc([N+](=O)[O-])c1` has a reported log10 of IC50 of 1.71

Taken from ChEMBL document CHEMBL1158565.
